# System: mouse bone marrow-derived cultured mast cells (BMCMC)
# measurement-notes: Degranulation inhibitory test of mast cell (β-hexosaminidase release)
# Assay type: cell-based
# cond: 1 h, anti DNP IgE / DNP-BSA 50 ng/ml stimulation, 60 minutes, read-out: Inhibitory Ration of Degranulation(%) at 10 μM Drug Concentration
measure-name: inhibition at 10 µM (%)
Quick note: give the figure in %, leave out the unit.

Take a look at these entries with their results.
- smiles-str: "O=C(Nc1cc(C(F)(F)F)ccc1C(F)(F)F)c1cc(Cl)ccc1O"
  measured-target: "mouse bone marrow-derived cultured mast cells (BMCMC)"
  inhibition at 10 µM, %: 83
- smiles-str: "CC(C)(C)c1ccc(O)c(C(=O)Nc2cc(C(F)(F)F)cc(C(F)(F)F)c2)c1"
  measured-target: "mouse bone marrow-derived cultured mast cells (BMCMC)"
  inhibition at 10 µM, %: 92
- smiles-str: "O=C(Nc1cc(C(F)(F)F)ccc1Cl)c1cc(Cl)ccc1O"
  measured-target: "mouse bone marrow-derived cultured mast cells (BMCMC)"
  inhibition at 10 µM, %: 93

Now look at this entry.
(Q) Notebook: pull reported inhibition at 10 µM for mouse bone marrow-derived cultured mast cells (BMCMC), entry "CC(C)(C)C(=O)c1sc(NC(=O)c2cc(Cl)ccc2O)nc1C(C)(C)C"
(A) 72
